# Target entity: HIPK1 (Homo sapiens, UniProt Q86Z02)
# Sequence (Q86Z02 154-554): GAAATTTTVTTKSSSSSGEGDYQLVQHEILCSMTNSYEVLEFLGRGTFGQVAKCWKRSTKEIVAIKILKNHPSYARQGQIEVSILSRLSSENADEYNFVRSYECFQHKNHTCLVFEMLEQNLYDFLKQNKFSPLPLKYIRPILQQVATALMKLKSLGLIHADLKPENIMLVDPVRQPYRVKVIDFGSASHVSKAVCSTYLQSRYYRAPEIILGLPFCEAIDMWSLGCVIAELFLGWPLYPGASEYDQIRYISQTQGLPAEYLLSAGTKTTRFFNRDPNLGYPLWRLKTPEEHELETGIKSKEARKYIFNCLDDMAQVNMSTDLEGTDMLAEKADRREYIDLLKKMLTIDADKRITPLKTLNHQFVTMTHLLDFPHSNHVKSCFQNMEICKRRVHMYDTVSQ
Recorded endpoint: IC50 (µM)
Give bare numbers, in µM.

Value of measured IC50 for the entry CCN1CCN(Cc2ccc(Nc3ncc(F)c(-c4cc(F)c5nc(C)n(C(C)C)c5c4)n3)nc2)CC1 : 4.53

----------
# Target entity: HIPK2 (Homo sapiens, UniProt Q9H2X6)
# Sequence (Q9H2X6 160-563): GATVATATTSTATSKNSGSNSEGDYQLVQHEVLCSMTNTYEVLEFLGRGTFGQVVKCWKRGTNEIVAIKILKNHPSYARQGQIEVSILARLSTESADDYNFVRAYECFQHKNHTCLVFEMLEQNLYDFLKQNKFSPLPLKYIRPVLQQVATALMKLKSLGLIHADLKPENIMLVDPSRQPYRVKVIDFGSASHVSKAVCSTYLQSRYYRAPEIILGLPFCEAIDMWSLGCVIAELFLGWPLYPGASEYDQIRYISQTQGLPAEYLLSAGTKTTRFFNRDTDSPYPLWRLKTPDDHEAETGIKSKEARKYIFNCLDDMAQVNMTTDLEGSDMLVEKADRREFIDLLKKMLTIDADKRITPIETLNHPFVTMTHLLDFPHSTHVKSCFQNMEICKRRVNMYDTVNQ
Recorded endpoint: Kd (nM)
Numbers only, in nM.

Value of measured Kd for the entry CCN1CCN(Cc2ccc(Nc3ncc(F)c(-c4cc(F)c5nc(C)n(C(C)C)c5c4)n3)nc2)CC1 [abemaciclib] : 0.8

----------
# Target entity: HIPK3 (Homo sapiens)
# Construct: kinase domain, residues 159–562
# Sequence (Q9H422 159-562): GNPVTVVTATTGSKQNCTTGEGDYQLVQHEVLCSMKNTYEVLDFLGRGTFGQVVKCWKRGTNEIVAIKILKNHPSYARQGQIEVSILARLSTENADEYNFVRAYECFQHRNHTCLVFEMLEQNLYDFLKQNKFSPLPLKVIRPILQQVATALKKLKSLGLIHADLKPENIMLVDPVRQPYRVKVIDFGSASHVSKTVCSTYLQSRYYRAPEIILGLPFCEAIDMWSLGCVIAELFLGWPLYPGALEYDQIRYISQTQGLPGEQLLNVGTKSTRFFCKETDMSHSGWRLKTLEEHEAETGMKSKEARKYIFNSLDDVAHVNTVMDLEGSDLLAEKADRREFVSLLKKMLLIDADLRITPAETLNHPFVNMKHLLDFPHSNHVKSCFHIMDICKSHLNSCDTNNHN
# Assay procedure: radioactive in vitro kinase assay, His-c-Myc substrate
# Assay type: biochemical
# Settings: read-out: IC50
Recorded endpoint: IC50

Value of measured IC50 for the entry CN(C)C[C@H]1CC[C@H](N2C(=O)NCc3cnc4ccc(-c5cc(Cl)c(O)c(Cl)c5)cc4c32)CC1 [HTH-01-091] : 1600 nM
